# Tested system: T1, Human IL-11 (human, UniProt P20809 22-199)
# T1 construct: Recombinant human IL-11 (GenScript Cat. No. Z03108-1) or IL-11 secreted by human cells; the mature form is said to have 178 residues; also called recombinant human IL-11; endogenously produced IL-11
# T1 sequence: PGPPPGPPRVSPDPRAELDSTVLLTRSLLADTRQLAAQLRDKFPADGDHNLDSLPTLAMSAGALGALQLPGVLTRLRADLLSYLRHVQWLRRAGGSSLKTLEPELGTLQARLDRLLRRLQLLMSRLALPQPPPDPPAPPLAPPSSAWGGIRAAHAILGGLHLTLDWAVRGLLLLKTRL
# Procedure summary: SPR, Single Cycle Kinetics, BIAcore T200; human IL-11 immobilised on CM5 chip, antibody in IgG1 format as analyte, 1:1 model

# Binder, koff [s⁻¹]
rows = [
    ("01A (antibody, IgG1, V domains shown, C91A variant of the YU100-H01 VL) VH: QVQLVQSGGGVVQPGRSLRLSCAASGFTFSSYAMHWVRQAPGKGLEWVAVISYDGSNKYYADSVKGRFTISRDNSKNTLYLQMNSLRAEDTAVYYCARIMGYDYGDYDVVDYWGQGTLVTVSS VL: QSALTQPRSVSGSPGQSVTISCTGTSSDVGAYNYVSWYQQHPGKAPKLMIYDVSERPSGVPDRFSGSKSGNTASLTISGLQAEDEADYYCASYAGSYTWVFGGGTKLTVLG", 0.00081),
    ("YU100-H01 (antibody, human IgG1, V domains shown, Light chain shuffled human antibody; Only the variable domains are tied to the clone) VH: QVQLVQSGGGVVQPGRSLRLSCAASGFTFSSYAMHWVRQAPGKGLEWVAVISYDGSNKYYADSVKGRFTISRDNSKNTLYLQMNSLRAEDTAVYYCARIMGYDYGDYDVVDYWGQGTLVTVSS VL: QSALTQPRSVSGSPGQSVTISCTGTSSDVGAYNYVSWYQQHPGKAPKLMIYDVSERPSGVPDRFSGSKSGNTASLTISGLQAEDEADYYCCSYAGSYTWVFGGGTKLTVLG", 0.000658),
    ("01G (antibody, IgG1, V domains shown, C91G variant of the YU100-H01 VL) VH: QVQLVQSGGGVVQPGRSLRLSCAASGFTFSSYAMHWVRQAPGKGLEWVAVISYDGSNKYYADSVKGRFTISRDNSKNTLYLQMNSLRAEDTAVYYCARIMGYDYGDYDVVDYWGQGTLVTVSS VL: QSALTQPRSVSGSPGQSVTISCTGTSSDVGAYNYVSWYQQHPGKAPKLMIYDVSERPSGVPDRFSGSKSGNTASLTISGLQAEDEADYYCGSYAGSYTWVFGGGTKLTVLG", 0.000986),
]
